# Test system: MS2 coat protein
# EXPERIMENT_SUMMARY: apparent KD of MS2 coat protein; designed switch direction (-1 OFF switch, 1 ON switch): -1; higher = weaker reporter binding
# ASSAY_SETUP: Eterna round: R95; input ligand: none
EXPERIMENTAL_ENDPOINT: apparent KD of MS2 coat protein (nM)
The reply should contain only the number, in nM.

Here is how some sequences turned out for apparent KD of MS2 coat protein.
biopolymer_sequence="CAUACAGUAGUCAGGAUAUUGCAACACACACGGAACGAGAAGGGACAUGAGGAUCACCCAUGUAUACUGUAAAG [EX-4 Malc #5] (puzzle: Brourd's mod of Exclusion 4)" measurement_unit=nM recorded_value=24.7
biopolymer_sequence="CCUCUGUAAGGAUAUACGGAGACCACUGGAAUCAGUGGAAAGUAGAAGGUACAUGAGGAUCACCCAUGUGAGAA [Laveatisce] (puzzle: Exclusion 4)" measurement_unit=nM recorded_value=49.3
biopolymer_sequence="GAAAAGGUAGGAUAUACUAAAAAAAAGGGUAGAAAAAAAACACAUGAGGAUCACCCAUGUAGAAGGACCAAAAG [salish99_ex2_r3_058] (puzzle: Exclusion 2)" measurement_unit=nM recorded_value=20.8
biopolymer_sequence="GUAUGUAACUAGGAUAUCAGCAUACUUCAAUGUUGAGAAGGAGUUACAUGAGGAUCACCCAUGUAUCCAACAUG [Exclusion 6 - 3:b] (puzzle: Exclusion 6)" measurement_unit=nM recorded_value=69.1

Proceeding to the next sequence to report its apparent KD of MS2 coat protein.
// apparent KD of MS2 coat protein value for AGACAGUCAGGAUAUACAUGAGGAUCACCCAUGUUGAGAUGAGAAAGGGCAGGAAUAGGUAGAAGGGACGAGAG [JR_Exclu3_Sub037] (puzzle: Exclusion 3) : 26.2

---

# Tested on: MS2 coat protein
# EXPERIMENT_SUMMARY: apparent KD of MS2 coat protein, switch ON state; designed switch direction (-1 OFF switch, 1 ON switch): 1; higher = weaker reporter binding
# ASSAY_SETUP: FMN input: 0 or 200 uM; Eterna round: R93 (includes R88 designs)
Entries annotated with measured apparent KD of MS2 coat protein
Write the number in nM without appending the unit.

Here are 2 sequences together with their reported answers.
biopolymer_sequence="AGCAUCACCAGUCAGGAUAUGUAGGCCUUGACAUGAGGAUCACCCAUGUGGACGAAACACCGGCCACAGAAGGGAUUGUAAAUAA [Ries]" measurement_unit=nM recorded_value=434
biopolymer_sequence="GAAAAACAUGAGGAUCACCCAUGUGUAAAUAUGGGAGGAUAUACAAAGACGUAAGUCAAAGUAGAAGGCCUAAAAG [Mat - Same State 1 - Eli mod - D12]" measurement_unit=nM recorded_value=29.9

Proceed to the following item.
Entry AGCGAACAUGAGGAUCACCCAUGUCCCGCGAAUCAAGGAUAUGGGCAGAUGAGUCCUGCGCCAGAAGGUGAGUAAA [Rigeesar] ; apparent KD of MS2 coat protein = 49.6

---

Reported apparent KD of MS2 coat protein values are given for each entry in this list.
# Tested on: MS2 coat protein
# EXPERIMENT_SUMMARY: apparent KD of MS2 coat protein; designed switch direction (-1 OFF switch, 1 ON switch): -1; higher = weaker reporter binding
# ASSAY_SETUP: input ligand: FMN 200 uM

biopolymer_sequence="GGGUAGUGAGGAUAUCGUUGUUAGGAGGAGUAGGUAGGAGGCGAGAAGGCACAUGAGGAUCACCCAUGUAUGAA [JR_Exclu4_Sub066] (Eterna round: R96, puzzle: Exclusion 4)" system_name="MS2 coat protein" recorded_value="34.9 nM"
biopolymer_sequence="UUGUACAGAGGAUAUACAUGAGGAUCACCCAUGUGUUUCAGCUAGGAGACUAGCGAAAGUAGAAGGCUGUACUC [salish99_ex3_r4_015] (Eterna round: R97, puzzle: Exclusion 3)" system_name="MS2 coat protein" recorded_value="23.9 nM"
biopolymer_sequence="GAAAAGGUAGAGGAUAUUUCAGAUCAAAGCUGCAAAGAAGGCUGCACAUGAGGAUCACCCAUGUGGUCUUCAAA [Mod of Quesina 9 - Jieux - Exclusion 6] (Eterna round: R97, puzzle: Exclusion 6)" system_name="MS2 coat protein" recorded_value="121 nM"

Consider UCGUGAUUAGAGGAUAUAUUUUGAGUCAGAACAAUAGAAGGCUAAACAUGAGGAUCACCCAUGUAUGUGUAAAA [JR_Ex6_Sub063] (Eterna round: R97, puzzle: Exclusion 6) . Its measured apparent KD of MS2 coat protein is 184 nM

Just so you know, measured apparent KD of MS2 coat protein for GUGGCACAUGAGGAUCACCCAUGUUAGGAUAUGCUCAAAACGCCCUAGGGUAAGCUGUGUAGAAGGAGCAGGAC [Eternabot (L1) Solution 52] (Eterna round: R97, puzzle: Exclusion 1) came out at 33.7 nM
